All values here come from ChEMBL document CHEMBL1147148.

# maps each entry to its IC50
# System: MRC5
# assay.details: Cytotoxicity against human MRC5 cells by MTT method
# Format: cell-based
Output should be the measured figure followed by the unit it is expressed in.

{"compound": "CC1=C(CO)C(=O)O[C@@H]([C@@H](C)[C@H]2CC[C@H]3[C@@H]4C[C@H]5O[C@]56[C@@H](O)C=CC(=O)[C@]6(C)[C@H]4CC[C@]23C)C1 [WITHAFERIN A]", "quantity": "IC50", "experimental.value": "0.07 µg/mL"}

**Query** Notebook: pull reported IC50 for MRC5, entry C[C@@]12CC([C@@]3(O)CC[C@H]4[C@@H]5C[C@H]6O[C@]67[C@@H](O)C=CC(=O)[C@]7(C)[C@H]5CC[C@@]43C)[C@@H](C1)OC(=O)[C@]2(C)O (stereo not given in full) [ANOMANOLIDE A]
**Result** 1.91 µg/mL

**Query** Okay, and CC1=C(C)C(=O)O[C@@H]([C@](C)(O)[C@@]2(O)CC[C@H]3[C@@H]4C[C@H]5O[C@]56[C@@H](O)C=CC(=O)[C@]6(C)[C@H]4CC[C@@]32C)C1 ?
**Result** 1.89 µg/mL

**Query** Also, C[C@@]12CC([C@@]3(O)CC[C@H]4[C@@H]5C[C@H](O)[C@]6(O)[C@@H](O)C=CC(=O)[C@]6(C)[C@H]5CC[C@@]43C)[C@@H](C1)OC(=O)[C@]2(C)O (stereo not given in full) [ANOMANOLIDE B] please.
**Result** 0.2 µg/mL

**Query** Consider next the compound COc1cccc2c1C(=O)c1c(O)c3c(c(O)c1C2=O)C[C@@](O)(C(=O)CO)C[C@@H]3O[C@H]1C[C@H](N)[C@H](O)[C@H](C)O1 [DOXORUBICIN] in the same way.
**Result** 0.77 µg/mL

---

# System: HepG2
# assay.details: Cytotoxicity against human HepG2 cells by MTT method
# Type: cell-based
quantity: log10 IC50 (log10 of the value in µg/mL)
Remember, log10 of IC50, in µg/mL.

# annotated cases, reported log10 IC50 shown
{"molecule": "CC1=C(C)C(=O)O[C@@H]([C@@H](C)[C@@]23O[C@@H]2C[C@H]2[C@@H]4C[C@H]5O[C@]56[C@@H](O)C=CC(=O)[C@]6(C)[C@H]4CC[C@@]23C)C1 [TUBOCAPSANOLIDE A]", "measured.on": "HepG2", "experimental.value": -0.07}
{"molecule": "C[C@]1(O)C[C@H]2OC(=O)[C@]1(C)C[C@H]2[C@@]1(O)[C@H](O)C[C@H]2[C@@H]3C[C@H](Cl)[C@]4(O)[C@@H](O)C=CC(=O)[C@]4(C)[C@H]3CC[C@@]21C [TUBONOLIDE A]", "measured.on": "HepG2", "experimental.value": 0.71}
{"molecule": "CC1=C(C)C(=O)O[C@@H]([C@](C)(O)[C@@]23O[C@@H]2C[C@H]2[C@@H]4C[C@H]5O[C@]56[C@@H](O)C=CC(=O)[C@]6(C)[C@H]4CC[C@@]23C)C1 [20-HYDROXYTUBOCAPSANOLIDE A]", "measured.on": "HepG2", "experimental.value": -0.14}
{"molecule": "CC1=C(C)C(=O)O[C@@H]([C@@H](C)[C@@]2(O)CC[C@H]3[C@@H]4C[C@H]5O[C@]56[C@@H](O)C=CC(=O)[C@]6(C)[C@H]4CC[C@@]32C)C1", "measured.on": "HepG2", "experimental.value": -0.19}
{"molecule": "CC1=C(CO)C(=O)O[C@@H]([C@@H](C)[C@H]2CC[C@H]3[C@@H]4C[C@H]5O[C@]56[C@@H](O)C=CC(=O)[C@]6(C)[C@H]4CC[C@]23C)C1 [WITHAFERIN A]", "measured.on": "HepG2", "experimental.value": -1.22}

**Query** // fetch HepG2 log10 IC50 for CC1=C(C)C(=O)O[C@@H]([C@](C)(O)[C@@]2(O)CC[C@H]3[C@@H]4C[C@H]5O[C@]56[C@@H](O)C=CC(=O)[C@]6(C)[C@H]4CC[C@@]32C)C1
**Result** -0.31

**Query** Cool, now C[C@@]12CC([C@@]3(O)CC[C@H]4[C@@H]5C[C@H]6O[C@]67[C@@H](O)C=CC(=O)[C@]7(C)[C@H]5CC[C@@]43C)[C@@H](C1)OC(=O)[C@]2(C)O (some centres not stated) [ANOMANOLIDE A]
**Result** 0.49

**Query** Follow-up entry: CC1=C(C)[C@H](O)[C@H]([C@@H](C)[C@@]23O[C@@H]2C[C@H]2[C@@H]4C[C@H]5O[C@]56[C@@H](O)C=CC(=O)[C@]6(C)[C@H]4CC[C@@]23C)OC1=O [23-HYDROXYTUBOCAPSANOLIDE A]
**Result** -0.36

**Query** Thanks! And C[C@@]12CC([C@@]3(O)CC[C@H]4[C@@H]5C[C@H](O)[C@]6(O)[C@@H](O)C=CC(=O)[C@]6(C)[C@H]5CC[C@@]43C)[C@@H](C1)OC(=O)[C@]2(C)O (some centres not stated) [ANOMANOLIDE B] ?
**Result** -0.01

---

# assay.details: Cytotoxicity against human Hep3B cells by MTT method
# Assay type: cell-based, Hep 3B2
quantity: IC50 (µg/mL)
Note: unit µg/mL is implicit; provide only the numeric part.

Below, 3 compounds whose answers are already recorded.
{"compound": "C[C@]1(O)C[C@H]2OC(=O)[C@]1(C)C[C@H]2[C@@]1(O)[C@H](O)C[C@H]2[C@@H]3C[C@H](Cl)[C@]4(O)[C@@H](O)C=CC(=O)[C@]4(C)[C@H]3CC[C@@]21C [TUBONOLIDE A]", "IC50, µg/mL": 6.54}
{"compound": "CC1=C(C)C(=O)O[C@@H]([C@@H](C)[C@@]2(O)CC[C@H]3[C@@H]4C[C@H]5O[C@]56[C@@H](O)C=CC(=O)[C@]6(C)[C@H]4CC[C@@]32C)C1", "IC50, µg/mL": 0.8}
{"compound": "COc1cccc2c1C(=O)c1c(O)c3c(c(O)c1C2=O)C[C@@](O)(C(=O)CO)C[C@@H]3O[C@H]1C[C@H](N)[C@H](O)[C@H](C)O1", "IC50, µg/mL": 0.45}

**Query** Name the reported IC50 value associated with the compound C[C@@]12CC([C@@]3(O)CC[C@H]4[C@@H]5C[C@H](O)[C@]6(O)[C@@H](O)C=CC(=O)[C@]6(C)[C@H]5CC[C@@]43C)[C@@H](C1)OC(=O)[C@]2(C)O (stereo partly drawn) [ANOMANOLIDE B]
**Result** 3.17

**Query** For CC1=C(C)C(=O)O[C@@H]([C@@H](C)[C@@]23O[C@@H]2C[C@H]2[C@@H]4C[C@H]5O[C@]56[C@@H](O)C=CC(=O)[C@]6(C)[C@H]4CC[C@@]23C)C1 [TUBOCAPSANOLIDE A] then?
**Result** 0.42

**Query** Request: CC1=C(C)[C@H](O)[C@H]([C@@H](C)[C@@]23O[C@@H]2C[C@H]2[C@@H]4C[C@H]5O[C@]56[C@@H](O)C=CC(=O)[C@]6(C)[C@H]4CC[C@@]23C)OC1=O [23-HYDROXYTUBOCAPSANOLIDE A]
**Result** 0.49

---

# Tested on: MRC5
# assay.details: Cytotoxicity against human MRC5 cells by MTT method
# Format: cell-based
Item-by-item account of IC50
Your answer should be a plain number; it is taken to be in µg/mL.

Solved entries:
{"molecule": "CC1=C(C)C(=O)O[C@@H]([C@](C)(O)[C@@]23O[C@@H]2C[C@H]2[C@@H]4C[C@H]5O[C@]56[C@@H](O)C=CC(=O)[C@]6(C)[C@H]4CC[C@@]23C)C1 [20-HYDROXYTUBOCAPSANOLIDE A]", "quantity": "IC50", "readout.units": "µg/mL", "experimental.value": 1.36}
{"molecule": "CC1=C(C)C(=O)O[C@@H]([C@@H](C)[C@@]2(O)CC[C@H]3[C@@H]4C[C@H]5O[C@]56[C@@H](O)C=CC(=O)[C@]6(C)[C@H]4CC[C@@]32C)C1", "quantity": "IC50", "readout.units": "µg/mL", "experimental.value": 0.81}
{"molecule": "CC1=C(C)[C@H](O)[C@H]([C@@H](C)[C@@]23O[C@@H]2C[C@H]2[C@@H]4C[C@H]5O[C@]56[C@@H](O)C=CC(=O)[C@]6(C)[C@H]4CC[C@@]23C)OC1=O [23-HYDROXYTUBOCAPSANOLIDE A]", "quantity": "IC50", "readout.units": "µg/mL", "experimental.value": 0.9}

Next up:
**Query** Name the recorded IC50 for CC1=C(C)C(=O)O[C@@H]([C@@H](C)[C@@]23O[C@@H]2C[C@H]2[C@@H]4C[C@H]5O[C@]56[C@@H](O)C=CC(=O)[C@]6(C)[C@H]4CC[C@@]23C)C1 [TUBOCAPSANOLIDE A] .
**Result** 0.73
